METHOD: Human HepG2 cell viability assay in 384 well format
Assay type: toxicity, cell-based
Parameters: dose 125 nL, time 70.5 hour; concentration not given beside the values
MEASUREMENT CONDITIONS: HepG2 cells, read-out: Inhibition
ASSAY METRIC: cytotoxicity at 70.5 h (%)
Lab book: enter the figure in %, no units written.

Illustrative cases are given below, each with its answer.
NC(=O)NC(=O)C(c1ccccc1)N1CCN(Cc2ccc(Cl)s2)CC1 (stereo not drawn) : -3.49
COc1cccc(OCc2cc(C(=O)NC[C@H]3CCCN3)n[nH]2)c1 : -4.69
Clc1ccccc1-c1cc(CNc2ncnc3c2CCNCC3)no1 : 12.2
CC(C)C1SCC(=O)Nc2c1c(O)nn2C1CCCC1 (stereo not drawn) : -23.1
O=C(NCC1CCC1)c1ccc(-n2ccnc2)nn1 : 5.15
c1cnc(N2CCOCC3(CCCN(c4nncs4)C3)C2)cn1 (stereo not drawn) : -3.82

Incoming: // lookup cytotoxicity at 70.5 h for O[C@@H]1CCN(c2ccc3c(Cl)ccnc3c2F)C1
Outgoing: -8.44

Incoming: // lookup cytotoxicity at 70.5 h for COc1ccc(CCNC(=O)C2CC2)c(Cl)c1
Outgoing: -1.42

---

# cytotoxicity at 70.5 h values compiled below
METHOD: Human HepG2 cell viability assay in 384 well format
Format: toxicity, cell-based
Design: dose 125 nL, time 70.5 hour; concentration not given beside the values
MEASUREMENT CONDITIONS: HepG2 cells, read-out: Inhibition
Lab book: enter the figure in %, no units written.

Cc1nn(C)c(C)c1CN(C)C(=O)c1cc(NC(=O)C2CC2)n(C)n1 : -8.63

Incoming: // lookup cytotoxicity at 70.5 h for COCCCN1Cc2cccc(NC(=O)c3cc(F)cc(F)c3)c2C1
Outgoing: 4.56

Incoming: // lookup cytotoxicity at 70.5 h for O=C(Cn1nc2c(cc1=O)CSCC2)N[C@@H](Cc1ccccc1)C(=O)O
Outgoing: -5.32

Incoming: // lookup cytotoxicity at 70.5 h for O=C([C@H]1C[C@H]2[C@H](CCN2Cc2cccs2)O1)N1CCOCC1
Outgoing: -16.9

Incoming: // lookup cytotoxicity at 70.5 h for CN(C)c1cc(C(=O)NCCc2nnc(-c3ccco3)[nH]2)ccn1
Outgoing: -5.78

Incoming: // lookup cytotoxicity at 70.5 h for O=c1c(NCCNCCO)c(N2CCN(c3ccccc3)CC2)c1=O
Outgoing: -6.86

Incoming: // lookup cytotoxicity at 70.5 h for Cc1cccc(OCC(=O)N2CCN(C3CCOC3=O)CC2)c1C (configuration not stated)
Outgoing: -2.32

---

METHOD: Human HepG2 cell viability assay in 384 well format
Format: toxicity, cell-based
Set-up: dose 125 nL, time 70.5 hour; concentration not given beside the values
MEASUREMENT CONDITIONS: HepG2 cells, read-out: Inhibition
# cytotoxicity at 70.5 h values compiled below
Lab book: enter the figure in %, no units written.

Illustrative cases are given below, each with its answer.
Cc1cccc(C2CCCN(C(=O)CN3C(=O)CCNC3=O)C2)c1 (configuration not stated) : -13.9
Nc1nc(CN2CCOC(Cn3cccn3)C2)nc2ccccc12 (configuration not stated) : -11.8
Cc1nc(C2CCN(Cc3ncc[nH]3)CC2)no1 : 19.7
Cn1cccc1C(=O)NC1(C(=O)NCC2CC2)CCCC1 : -11.4
CC1CN(C(=O)CCc2cc(Br)cs2)CCO1 (configuration not stated) : -4.33
CCN(c1ccc(C(=O)NCCCN2CCOCC2)cc1)S(=O)(=O)CC : 17.8

Incoming: // lookup cytotoxicity at 70.5 h for Clc1cc(NCc2ncc[nH]2)nc2[nH]ccc12
Outgoing: -6.45

Incoming: // lookup cytotoxicity at 70.5 h for Cc1cccc(C(=O)N2CCCn3c(CN4CCCCC4)nnc3C2)c1
Outgoing: -11.1

Incoming: // lookup cytotoxicity at 70.5 h for O=C(COCCOc1ccccc1)N1CCCC(n2ccnc2)C1 (configuration not stated)
Outgoing: -4.49

Incoming: // lookup cytotoxicity at 70.5 h for CC(=O)N(Cc1noc(C2CC2)n1)C1CCN(Cc2ccncc2)C1 (configuration not stated)
Outgoing: 19.8

Incoming: // lookup cytotoxicity at 70.5 h for CCn1ccnc1CN(C)CC1CCCN1c1cccnn1 (configuration not stated)
Outgoing: 10

Incoming: // lookup cytotoxicity at 70.5 h for Cc1cccc(-n2cc(C(=O)N3CCCC(n4cccn4)C3)nn2)c1 (configuration not stated)
Outgoing: -13.8

Incoming: // lookup cytotoxicity at 70.5 h for Cc1cc(NC(=O)CO)nn1-c1ccc(Cl)cc1Cl
Outgoing: 4.81

Incoming: // lookup cytotoxicity at 70.5 h for Cc1c(Cl)ccc2ccc(NC(CO)CO)nc12
Outgoing: 6.75

Incoming: // lookup cytotoxicity at 70.5 h for NC(=O)C1CCN(c2nc3nccc(-c4ccccn4)c3c(=O)[nH]2)CC1
Outgoing: -3.55

Incoming: // lookup cytotoxicity at 70.5 h for O=C(CN(C1=NCCCCC1)c1ccc(Cl)cc1)c1ccccc1
Outgoing: 10.9

Incoming: // lookup cytotoxicity at 70.5 h for COc1ccc(OC)c(CN(C(=O)c2ccc(C)[nH]c2=O)C2CC2)c1
Outgoing: 3.46

Incoming: // lookup cytotoxicity at 70.5 h for COCC(=O)N1CCCC1c1cccc(Nc2ncc(C)s2)n1 (configuration not stated)
Outgoing: 0.0728

Incoming: // lookup cytotoxicity at 70.5 h for CCC[C@@H]1CN(Cc2cnc3c(S(C)(=O)=O)cnn3c2)C[C@H]1N(C)C
Outgoing: -7.08

Incoming: // lookup cytotoxicity at 70.5 h for Cn1cc(C2(C)CN(Cc3ccc(Cl)c(F)c3)CCO2)cn1 (configuration not stated)
Outgoing: -7.47

Incoming: // lookup cytotoxicity at 70.5 h for CCN(Cc1cnn(CC)c1)C(=O)Cn1c(=O)c(C)nc2ccccc21
Outgoing: -17.7

Incoming: // lookup cytotoxicity at 70.5 h for COc1cccc(CN(C)C(=O)CCC(=O)c2ccc(Cl)cc2)c1OC
Outgoing: -10.4
